Test system: SNB-75 CNS
Assay: NCI tumour cell line growth inhibition, 48 h
MEASURED_PROPERTY: TGI (µM)
Numbers only; they are read as µM.

Field: example entries. Status: answers known.
SMILES_DATA: O=C(NC1=C(Cl)C(=O)c2ccccc2C1=O)c1ccc(F)cc1
MEASURED_ON: SNB-75 CNS
TGI (µM): 22.1

SMILES_DATA: CCOC(=O)C1=NOC2(C=C(Br)C(=O)C(Br)=C2)C1
MEASURED_ON: SNB-75 CNS
TGI (µM): 33.4

SMILES_DATA: C[C@@H]1CN(Cc2ccc(F)cc2)[C@@H](C)CN1C(=O)c1cc2c(C(=O)C(=O)N(C)C)cn(C)c2cc1Cl
MEASURED_ON: SNB-75 CNS
TGI (µM): 27.9

Next up:
(Q) Item `CN1CCN(C(=O)c2cc(-c3ccc4ncnc(N5CCc6cc(F)c(Cl)cc65)c4c3)cnc2N)CC1` has what recorded TGI?
(A) 0.704

###

Test system: NCI-H226 lung
Assay: NCI tumour cell line growth inhibition, 48 h; in the data active means GI50 below about 0.43 µM; inactive means the rest
// one of active, inactive, no free text

MOLECULE: O=C(O)CN1CCN(CC(=O)O)CC(=O)[O][Hg][O]C(=O)C1
CLASS: inactive

(Q) Short answer needed: outcome of this test for `O=C(Nc1ccc(OCc2nnc(-c3ccc(Cl)cc3)o2)c(F)c1)Nc1ccc(Cl)c(C(F)(F)F)c1` ?
(A) inactive

(Q) Could you kindly confirm the outcome this assay logged for `CNCCCNCCCCNCCCN1C(=O)c2ccc3c4c(ccc(c24)C1=O)C(=O)N(CCCNCc1ccccc1OC)C3=O` ?
(A) inactive

###

Test system: T-47D breast
Assay: NCI tumour cell line growth inhibition, 48 h; in the data active means GI50 below about 0.43 µM; inactive means the rest
Pick one and only one: t (active), f (inactive)

Consider the worked cases shown below.
MOLECULE: O=C(/C=C/c1cc2ccccc2[nH]c1=O)/C=C/c1cc2ccccc2[nH]c1=O
CLASS: f
//
MOLECULE: Cc1cc(S(=O)(=O)/N=C(/N)Nc2ccccc2O)c(SCc2ccccc2)cc1Cl
CLASS: f
//
MOLECULE: O=C(Nc1ccc(OCc2nnc(-c3ccc(Cl)cc3)o2)c(F)c1)Nc1ccc(Cl)c(C(F)(F)F)c1
CLASS: f
//
MOLECULE: O=C(NN1C(=O)CSC12CCCCC2)c1[nH]c2ccc(Br)cc2c1-c1ccccc1
CLASS: f
//
MOLECULE: CC(C)NCCCn1c(Sc2cc3c(cc2I)OCO3)nc2c(N)ncnc21
CLASS: t

(Q) Query: recorded result category for `O=C(O)CN1CCN(CC(=O)O)CC(=O)[O][Hg][O]C(=O)C1` in this test
(A) f

(Q) Hi, do you know how `CNCCCNCCCCNCCCN1C(=O)c2ccc3c4c(ccc(c24)C1=O)C(=O)N(CCCNCc1ccccc1OC)C3=O` came out in this test?
(A) t

(Q) Recorded call for `c1cnn2ncc(-c3ccnc(NCCCN4CCOCC4)n3)c2c1` ?
(A) f

(Q) Could you kindly confirm the outcome this assay logged for CN1C(=O)N(C)C2C1NN=c1s/c(=C\c3ccc(C(F)(F)F)cc3)c(=O)n12 (stereo unspecified) ?
(A) f

(Q) # fetch the recorded call for `COc1ccc(-c2[nH]c3ccccc3c2-c2ccc(OC)cc2)cc1` here
(A) f

(Q) Assay outcome for O=c1[nH]c(=O)n(C2CC(O)C(COP(=O)(OCc3ccc([N+](=O)[O-])o3)N(CCCCCl)CC(O)CO)O2)cc1F (stereo unspecified) : what was it?
(A) f

(Q) Call for entry `CCCCCCCCCCCCCCCCCC1=NCCN1CCOC1=C(Cl)C(=O)c2ccccc2C1=O` :
(A) f

(Q) Look up the recorded call for COc1ccc2c(c1)N(CCO)C1=C(C(=O)OC1)C2c1cccc(F)c1 (stereo unspecified) in this test.
(A) f

(Q) Field: outcome | Entry: `COc1cc2c(cc1OCCCn1c(-c3ccccn3)nc3ccccc31)N=C[C@@H]1CCCN1C2=O`
(A) f

(Q) Test call, this molecule: `CCCCCCCCCCCCCCCCCC[n+]1ccc2c(C)c3c(c(C)c2c1)c1cc(O)ccc1n3CC`
(A) f

(Q) Outcome? `COc1ccc(-c2cc(-c3ccc(C)cc3)nc3nc(=S)[nH]c(N)c23)cc1`
(A) f
